- System: SW1116 (Colorectal Carcinoma)
- Assay procedure: combination Emax (second highest fraction inhibited in the dose matrix, 72 h); higher = more inhibition; extreme values may be limits of the assay
Observed property: combination Emax
Please state the value as a number alone, without comment.

# get_value(readout='combination Emax', item= Cc1c2c(nn1C)CSCc1cc(n(C)n1)CSc1cc(c3ccccc3c1)OCCCc1c(C(=O)O)n(C)c3c-2c(Cl)ccc13 [AZD5991] + Cn1cnc2c(F)c(Nc3ccc(Br)cc3Cl)c(C(=O)NOCCO)cc21 [Selumetinib] (first compound max 1 µM, 7x7, partner max 3 µM) )
0.446

---

- System: TE-4 (Esophageal Squamous Cell Carcinoma)
- Assay procedure: combination Emax (second highest fraction inhibited in the dose matrix, 72 h); higher = more inhibition; extreme values may be limits of the assay
Observed property: combination Emax
Format: numeric value only, no unit, no commentary.

# query: combination Emax of entry CC1(C)CCC(CN2CCN(c3ccc(C(=O)NS(=O)(=O)c4ccc(NCC5CCOCC5)c([N+](=O)[O-])c4)c(Oc4cnc5[nH]ccc5c4)c3)CC2)=C(c2ccc(Cl)cc2)C1 [Venetoclax] + Cn1cnc2c(F)c(Nc3ccc(Br)cc3Cl)c(C(=O)NOCCO)cc21 [Selumetinib] (first compound max 1 µM, 7x7, partner max 3 µM)
0.114

What value of measured combination Emax is listed for C=CCn1c(=O)c2cnc(Nc3ccc(N4CCN(C)CC4)cc3)nc2n1-c1cccc(C(C)(C)O)n1 [AZD1775] + C[C@@H]1COCCN1C2=NC(=NC(=C2)C3(CC3)[S@](=N)(=O)C)C4=C5C=CNC5=NC=C4 [AZD6738] (first compound max 1 µM, partner max 10 µM) ?
0.805

---

- System: KYSE-410 (Esophageal Squamous Cell Carcinoma)
- Assay procedure: combination Emax (second highest fraction inhibited in the dose matrix, 72 h); higher = more inhibition; extreme values may be limits of the assay
Observed property: combination Emax
Form field (numeric): enter value without unit.

Consider the molecule COc1cccc(OCCCN)c1-c1cc(Nc2cnc(C#N)cn2)n[nH]1 [Prexasertib] + O=C(c1cc(Cc2n[nH]c(=O)c3ccccc23)ccc1F)N1CCN(C(=O)C2CC2)CC1 [Olaparib] (first compound max 1 µM, 7x7, partner max 10 µM) and give its measured combination Emax.
0.382

Looking for the measured combination Emax of C[C@@H](c1ccc2nccn2c1)n1nnc2ncc(-c3cnn(C)c3)nc21 [Savolitinib] + CC1(C)CCC(CN2CCN(c3ccc(C(=O)NS(=O)(=O)c4ccc(NCC5CCOCC5)c([N+](=O)[O-])c4)c(Oc4cnc5[nH]ccc5c4)c3)CC2)=C(c2ccc(Cl)cc2)C1 [Venetoclax] (first compound max 1 µM, 7x7, partner max 1 µM) , can you help?
0.124

Name the reported combination Emax value associated with the molecule COc1nnc2ccc(N3CCC(c4ccc(OCCN5CCN(C)C(=O)[C@H]5C)cc4)CC3)nn12 [AZD5153] + CC1(C)CCC(CN2CCN(c3ccc(C(=O)NS(=O)(=O)c4ccc(NCC5CCOCC5)c([N+](=O)[O-])c4)c(Oc4cnc5[nH]ccc5c4)c3)CC2)=C(c2ccc(Cl)cc2)C1 [Venetoclax] (first compound max 1 µM, 7x7, partner max 1 µM)
0.266

---

Could you please report measured Bliss excess for the items listed next?
- Test system: SH-4 (Melanoma)
- Assay procedure: Bliss excess, mean over the matrix (fraction); higher = more synergy
Form field (numeric): enter value without unit.

Hi! What's the reported Bliss excess for COc1cc2ncnc(Nc3ccc(F)c(Cl)c3)c2cc1OCCCN1CCOCC1 [Gefitinib] + CC(C)n1c(=O)n(C)c2cnc3cc(F)c(-c4ccc(OCCCN5CCCCC5)nc4)cc3c21 [AZD1390] (first compound max 10 µM, 7x7, partner max 0.3 µM) on SH-4 (Melanoma)?
-0.0669

Notebook entry, SH-4 (Melanoma) assay: Bliss excess of C[C@@H](Oc1cc(-c2cnn(C3CCNCC3)c2)cnc1N)c1c(Cl)ccc(F)c1Cl [Crizotinib] + Cn1cnc2c(F)c(Nc3ccc(Br)cc3Cl)c(C(=O)NOCCO)cc21 [Selumetinib] (first compound max 10 µM, 7x7, partner max 10 µM) = ?
-0.0768

Field: Bliss excess (SH-4 (Melanoma)). Entry: COc1nnc2ccc(N3CCC(c4ccc(OCCN5CCN(C)C(=O)[C@H]5C)cc4)CC3)nn12 [AZD5153] + CCN(CCO)CCCOc1ccc2c(Nc3cc(CC(=O)Nc4cccc(F)c4)[nH]n3)ncnc2c1 [AZD2811] (first compound max 1 µM, 7x7, partner max 1 µM)
-0.0194

Lookup: Bliss excess / SH-4 (Melanoma) / C[C@@H](Nc1cc(F)cc(F)c1)c1cc(C(=O)N(C)C)cc2c(=O)cc(N3CCOCC3)oc12 [AZD8186] + C1CN(CCC1(C(=O)N[C@@H](CCO)C2=CC=C(C=C2)Cl)N)C3=NC=NC4=C3C=CN4 [AZD5363] (first compound max 10 µM, 7x7, partner max 10 µM)
-0.0317

Query Bliss excess on SH-4 (Melanoma) for C[C@@H]1COCCN1c1cc(C2([S@](C)(=N)=O)CC2)nc(-c2ccnc3[nH]ccc23)n1 [AZD6738] + C1CC(C1)(C(=O)[O-])C(=O)[O-].N.N.[Pt+2] [Carboplatin] (first compound max 10 µM, 7x7, partner max 10 µM)
-0.057

Notebook entry, SH-4 (Melanoma) assay: Bliss excess of CN(C)CCCOc1ccc(-c2ccc3ncc4c(c3c2)n(C2CCOCC2)c(=O)n4C)cn1 [AZD0156] + O=C(c1cc(Cc2n[nH]c(=O)c3ccccc23)ccc1F)N1CCN(C(=O)C2CC2)CC1 [Olaparib] (first compound max 3 µM, partner max 3 µM) = ?
0.0237

Param readout = Bliss excess; param system = SH-4 (Melanoma); param query = CCc1c2c(nc3ccc(O)cc13)-c1cc3c(c(=O)n1C2)COC(=O)[C@]3(O)CC [SN-38] + O=C(c1cc(Cc2n[nH]c(=O)c3ccccc23)ccc1F)N1CCN(C(=O)C2CC2)CC1 [Olaparib] (first compound max 0.3 µM, 7x7, partner max 10 µM) ; response: value
0.0956

Recall the recorded Bliss excess for NC1(C(=O)N[C@@H](CCO)c2ccc(Cl)cc2)CCN(c2ncnc3[nH]ccc23)CC1 [Capivasertib] + COc1nnc2ccc(N3CCC(c4ccc(OCCN5CCN(C)C(=O)[C@H]5C)cc4)CC3)nn12 [AZD5153] (first compound max 10 µM, 7x7, partner max 1 µM) with SH-4 (Melanoma) and state it.
-0.0171

---

- Tested on: KYSE-410 (Esophageal Squamous Cell Carcinoma)
- Assay procedure: Bliss excess, mean over the matrix (fraction); higher = more synergy
Observed property: Bliss excess
Lab note: record just the number, no unit beside it.

For the molecule Cc1cc2ncnn2cc1Nc1ncc2c(n1)n(C1CCOCC1)c(=O)n2C [AZD7648] + C=CCn1c(=O)c2cnc(Nc3ccc(N4CCN(C)CC4)cc3)nc2n1-c1cccc(C(C)(C)O)n1 [AZD1775] (first compound max 10 µM, partner max 1 µM) , what Bliss excess is on record?
-0.0094

Consider the molecule Cn1cnc2c(F)c(Nc3ccc(Br)cc3Cl)c(C(=O)NOCCO)cc21 [Selumetinib] + C=CCn1c(=O)c2cnc(Nc3ccc(N4CCN(C)CC4)cc3)nc2n1-c1cccc(C(C)(C)O)n1 [AZD1775] (first compound max 10 µM, partner max 1 µM) and give its measured Bliss excess.
0.0543

---

- Test system: 8305C (Thyroid Gland Carcinoma)
- Assay procedure: combination Emax (second highest fraction inhibited in the dose matrix, 72 h); higher = more inhibition; extreme values may be limits of the assay
Observed property: combination Emax
Just the number, please, no unit after it.

Param item = CN(CCO)CC[C@H](CSc1ccccc1)Nc1ccc(S(=O)(=O)NC(=O)c2ccc(N3CCC([C@@H](O)c4ccccc4-c4ccc(Cl)cc4)CC3)cc2)cc1S(=O)(=O)C(F)(F)F [AZD4320] + CS(=O)(=O)CCNCc1ccc(-c2ccc3ncnc(Nc4ccc(OCc5cccc(F)c5)c(Cl)c4)c3c2)o1 [Lapatinib] (first compound max 1 µM, 7x7, partner max 10 µM) ; retrieve measured combination Emax.
0.677

Recorded combination Emax of CC1(C)CCC(CN2CCN(c3ccc(C(=O)NS(=O)(=O)c4ccc(NCC5CCOCC5)c([N+](=O)[O-])c4)c(Oc4cnc5[nH]ccc5c4)c3)CC2)=C(c2ccc(Cl)cc2)C1 [Venetoclax] + CCN(CCO)CCCOc1ccc2c(Nc3cc(CC(=O)Nc4cccc(F)c4)[nH]n3)ncnc2c1 [AZD2811] (first compound max 1 µM, 7x7, partner max 1 µM) , please.
0.354

Given the compound C=CCn1c(=O)c2cnc(Nc3ccc(N4CCN(C)CC4)cc3)nc2n1-c1cccc(C(C)(C)O)n1 [AZD1775] + CCc1c2c(nc3ccc(O)cc13)-c1cc3c(c(=O)n1C2)COC(=O)[C@]3(O)CC [SN-38] (first compound max 1 µM, partner max 0.3 µM) , what is its reported combination Emax?
0.589

---

- Test system: CAPAN-1 (Pancreatic Carcinoma)
- Assay procedure: combination Emax (second highest fraction inhibited in the dose matrix, 72 h); higher = more inhibition; extreme values may be limits of the assay
Observed property: combination Emax
Note: the reply should be a number with no unit written.

# lookup: combination Emax of C[C@@H]1COCCN1c1cc(C2([S@](C)(=N)=O)CC2)nc(-c2ccnc3[nH]ccc23)n1 [AZD6738] + O=C(c1cc(Cc2n[nH]c(=O)c3ccccc23)ccc1F)N1CCN(C(=O)C2CC2)CC1 [Olaparib] (first compound max 10 µM, 7x7, partner max 10 µM)
0.442

Request the reported combination Emax associated with CCc1c2c(nc3ccc(O)cc13)-c1cc3c(c(=O)n1C2)COC(=O)[C@]3(O)CC [SN-38] + O=C(c1cc(Cc2n[nH]c(=O)c3ccccc23)ccc1F)N1CCN(C(=O)C2CC2)CC1 [Olaparib] (first compound max 0.3 µM, 7x7, partner max 10 µM)
0.818

Return reported combination Emax; argument: CC(=O)c1c(C)c2cnc(Nc3ccc(N4CCNCC4)cn3)nc2n(C2CCCC2)c1=O [Palbociclib] + Cc1c2c(nn1C)CSCc1cc(n(C)n1)CSc1cc(c3ccccc3c1)OCCCc1c(C(=O)O)n(C)c3c-2c(Cl)ccc13 [AZD5991] (first compound max 10 µM, 7x7, partner max 1 µM)
0.245

Entry O=C(c1cc(Cc2n[nH]c(=O)c3ccccc23)ccc1F)N1CCN(C(=O)C2CC2)CC1 [Olaparib] + Cc1c2c(nn1C)CSCc1cc(n(C)n1)CSc1cc(c3ccccc3c1)OCCCc1c(C(=O)O)n(C)c3c-2c(Cl)ccc13 [AZD5991] (first compound max 10 µM, 7x7, partner max 1 µM) : reported combination Emax = ?
0.366

What does the record list as combination Emax for C[C@@H]1COCCN1c1cc(C2([S@](C)(=N)=O)CC2)nc(-c2ccnc3[nH]ccc23)n1 [AZD6738] + C1CC(C1)(C(=O)[O-])C(=O)[O-].N.N.[Pt+2] [Carboplatin] (first compound max 10 µM, 7x7, partner max 10 µM) ?
0.384

Please look up its combination Emax: NC1(C(=O)N[C@@H](CCO)c2ccc(Cl)cc2)CCN(c2ncnc3[nH]ccc23)CC1 [Capivasertib] + C[C@@H]1COCCN1C2=NC(=NC(=C2)C3(CC3)[S@](=N)(=O)C)C4=C5C=CNC5=NC=C4 [AZD6738] (first compound max 10 µM, 7x7, partner max 10 µM)
0.364

// query combination Emax value for entry CN(CCO)CC[C@H](CSc1ccccc1)Nc1ccc(S(=O)(=O)NC(=O)c2ccc(N3CCC([C@@H](O)c4ccccc4-c4ccc(Cl)cc4)CC3)cc2)cc1S(=O)(=O)C(F)(F)F [AZD4320] + CC(=O)O[C@H]1C(=O)[C@@]2(C)[C@H]([C@H](OC(=O)c3ccccc3)[C@]3(O)C[C@H](OC(=O)[C@H](O)[C@@H](NC(=O)c4ccccc4)c4ccccc4)C(C)=C1C3(C)C)[C@]1(OC(C)=O)CO[C@@H]1C[C@@H]2O [Paclitaxel] (first compound max 1 µM, 7x7, partner max 3 µM)
0.874

Given CC1(C)CCC(CN2CCN(c3ccc(C(=O)NS(=O)(=O)c4ccc(NCC5CCOCC5)c([N+](=O)[O-])c4)c(Oc4cnc5[nH]ccc5c4)c3)CC2)=C(c2ccc(Cl)cc2)C1 [Venetoclax] + C1CN(CCC1(C(=O)N[C@@H](CCO)C2=CC=C(C=C2)Cl)N)C3=NC=NC4=C3C=CN4 [Capivasertib] (first compound max 1 µM, 7x7, partner max 3 µM) , state its recorded combination Emax.
0.184

Query (compound): Cn1cnc2c(F)c(Nc3ccc(Br)cc3Cl)c(C(=O)NOCCO)cc21 [Selumetinib] + C=CCn1c(=O)c2cnc(Nc3ccc(N4CCN(C)CC4)cc3)nc2n1-c1cccc(C(C)(C)O)n1 [AZD1775] (first compound max 10 µM, partner max 1 µM) ; field requested: combination Emax
0.59
